# TEST_DETAILS: chemical genetic growth profiling, strain panel (AID 1159580);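 further: tested at 20 µM; growth read once vehicle control cultures reached saturation at 30 °C; 1 = growth at the plate median or of vehicle wells; lower values mean less growth of the strain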
# EXPERIMENTAL_PARAMETERS: S. cerevisiae deletion strains, growth OD, locus YFR010W, strain ubp6, stronger effect = lower value
The campaign covered roughly 5,500 compounds. About 2,000 (36%) were called active. About 18% were inconclusive and are not listed. The list shows a part of the results.
PARAMETER: normalized growth
Just the number, please, no unit after it.

INSERT INTO assay_data (compound, parameter, measured_result) VALUES
  ('COC1=CC(=O)C=C(OC)C1=O', 'normalized growth', 1),
  ('O=C(CCCN1CCC2(CC1)C(=O)NCN2c1ccccc1)c1ccc(F)cc1', 'normalized growth', 1),
  ('COc1ccc(-c2cc(=O)c3c(O)c(OC)c(OC)c(OC)c3o2)cc1OC', 'normalized growth', 0.997),
  ('CC[C@@]1(O)C(=O)OCc2c1cc1n(c2=O)Cc2cc3cc(O)ccc3nc2-1', 'normalized growth', 0.972);

Query :: Fill in: normalized growth of COP(N)(=O)SC (stereo not given) is ___
Result :: 0.994

Query :: How about COc1cc(-c2cc(=O)c3c(O)c(OC)c(OC)c(OC)c3o2)cc(OC)c1OC ?
Result :: 1.01

Query :: And what about the compound CC(C)(C)NCC(O)COc1cccc2c1C[C@H](O)[C@H](O)C2 (stereo not given in full) ?
Result :: 1.02

Query :: // next record CNC[C@H](O)c1cccc(O)c1
Result :: 0.976

Query :: Try this compound next: CN(C)C(=O)C(CCN1CCC(O)(c2ccc(Cl)cc2)CC1)(c1ccccc1)c1ccccc1
Result :: 0.988

Query :: // query: CC(C)c1cccc(C(C)C)c1O
Result :: 0.978

###

# TEST_DETAILS: chemical genetic growth profiling, strain panel (AID 1159580)
# EXPERIMENTAL_PARAMETERS: S. cerevisiae deletion strains, growth OD, locus YJR066W, strain TOR1, stronger effect = lower value
Screen size: about 5,500 compounds; about 2,000 (36%) were called active. Roughly 18% stayed inconclusive and do not appear here. The list shows a part of the results.
Each item that follows carries a reported normalized growth.
No unit in the answer, please; the number alone is enough.

Query :: Quick check: normalized growth of Oc1ccc2c3c1OC1[C@@H](O)CC[C@@]4(O)[C@@H](C2)N(CC2CCC2)CC[C@]314 (stereo partly drawn) ?
Result :: 0.905

Query :: Subsequent entry: C[C@H]1[C@H](C)CC[C@]2(C(=O)O)CC[C@]3(C)C(=CCC4[C@@]5(C)C[C@@H](O)[C@H](O)[C@@](C)(CO)C5[C@H](O)C[C@]43C)[C@H]12 (stereo partly drawn)
Result :: 0.909

Query :: Please do the same for O=C(O/N=C1/CCCc2[nH]c3ccccc3c21)C1CCCCC1 as well.
Result :: 0.895

###

# TEST_DETAILS: chemical genetic growth profiling, strain panel (AID 1159580)
# EXPERIMENTAL_PARAMETERS: S. cerevisiae deletion strains, growth OD, locus YPR141C, strain kar3, stronger effect = lower value
Out of some 5,500 compounds screened, about 2,000 (36%) were called active. About 18% were inconclusive and are not listed. The list shows a part of the results.
PARAMETER: normalized growth
Give a plain numeric answer without units written out.

INSERT INTO results (compound, parameter, measured_result) VALUES
  ('Nc1ccc(S(=O)(=O)Nc2ncccn2)cc1', 'normalized growth', 0.983);

Query :: Quick one: normalized growth of COc1cc(C)c2c(=O)c3c(O)cc(OC)cc3oc2c1 ?
Result :: 1

Query :: Another compound to check: C[C@H]1OC(O[C@H]2[C@@H](O)CC(O[C@H]3[C@@H](O)C[C@H](O[C@H]4CC[C@]5(C)C6CC[C@]7(C)[C@@H](C8=CC(=O)OC8)[C@@H](O)C[C@]7(O)[C@@H]6CC[C@@H]5C4)O[C@@H]3C)O[C@@H]2C)C[C@H](O)C1O (some centres undefined)
Result :: 0.99

Query :: Next compound: COc1ccc(-c2cc(=O)c3c(O)cc(O)cc3o2)cc1O
Result :: 1.01

###

# TEST_DETAILS: chemical genetic growth profiling, strain panel (AID 1159580);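 further: tested at 20 µM; growth read once vehicle control cultures reached saturation at 30 °C; 1 = growth at the plate median or of vehicle wells; lower values mean less growth of the strain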
# EXPERIMENTAL_PARAMETERS: S. cerevisiae deletion strains, growth OD, locus YDR054C, strain cdc34, stronger effect = lower value
In all, about 5,500 compounds went through this assay and about 2,000 (36%) were called active. Roughly 18% stayed inconclusive and do not appear here. Some of the results follow.
Collected normalized growth values appear next to each entry.
// return just the number, without any unit appended

INSERT INTO measurements (compound, measured_result) VALUES
  ('O=C(Nc1ccc(SC(F)(F)F)cc1)Nc1ccc(Oc2cccc(C(F)(F)F)c2)nc1', 0.994);

Query :: Entry C/C(=N/NC(N)=S)c1csc(-c2ccccc2)n1 : reported normalized growth = ?
Result :: 0.898

Query :: Consider next the compound CCCCCCCCCCCCSc1ncn[nH]1 in the same way.
Result :: 0.98

Query :: Also, O=C1/C(=C/c2c[nH]c3ccccc23)CSc2ccccc21 please.
Result :: 0.987

Query :: Now give it for N#C/C(N=Cc1cc(Cl)cc(Cl)c1O)=C(\C#N)N=Cc1cc(Cl)cc(Cl)c1O too.
Result :: 0.916

###

# TEST_DETAILS: chemical genetic growth profiling, strain panel (AID 1159580);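 further: tested at 20 µM; growth read once vehicle control cultures reached saturation at 30 °C; 1 = growth at the plate median or of vehicle wells; lower values mean less growth of the strain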
# EXPERIMENTAL_PARAMETERS: S. cerevisiae deletion strains, growth OD, locus YAL021C, strain ccr4, stronger effect = lower value
Among all 5,500 compounds or so, about 2,000 (36%) were called active. Not shown: some 18% with an inconclusive outcome. The list shows a part of the results.
PARAMETER: normalized growth
Answer with a number only.

INSERT INTO assay_data (compound, parameter, measured_result) VALUES
  ('C[C@@H]1CC[C@@]23CCC4(C)[C@@](C=CC5[C@@]6(C)CC[C@H](O)C(C)(C)C6CC[C@]54C)(OC2=O)C3[C@H]1C (some centres undefined)', 'normalized growth', 0.999),
  ('COc1cc(C(=O)N2CCOCC2)cc(OC)c1OC', 'normalized growth', 1.01),
  ('CN(C)CC[C@H](c1ccc(Cl)cc1)c1ccccn1', 'normalized growth', 0.99),
  ('C/C=C(\C)C(=O)O[C@@H]1c2c(ccc3ccc(=O)oc23)OC(C)(C)[C@@H]1OC(C)=O', 'normalized growth', 1.01),
  ('C[C@H]1[C@H](C)CC[C@]2(C(=O)O)CC[C@]3(C)C(=CCC4[C@@]5(C)C[C@@H](O)[C@H](O)[C@@](C)(CO)C5[C@H](O)C[C@]43C)[C@H]12 (some centres undefined)', 'normalized growth', 1.01);

Query :: Entry under review: CC1(C)[C@@H]2CC[C@@]1(C)C(=O)C2 . Reported normalized growth?
Result :: 0.97

Query :: Check C[N+]1(C)C[C@H](O)[C@H](C(=O)[O-])C1 too.
Result :: 0.996

Query :: Another compound to look at: CC1(C)C(=O)CC[C@@]2(C)C1C[C@@H](O)[C@@]1(C)C3=CC(=O)O[C@@H](c4ccoc4)[C@]3(C)CCC21 (some centres undefined)
Result :: 1.02

Query :: Also NCCCC(O)(P(=O)(O)O)P(=O)(O)O , if possible.
Result :: 0.993

###

# TEST_DETAILS: chemical genetic growth profiling, strain panel (AID 1159580);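 further: tested at 20 µM; growth read once vehicle control cultures reached saturation at 30 °C; 1 = growth at the plate median or of vehicle wells; lower values mean less growth of the strain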
# EXPERIMENTAL_PARAMETERS: S. cerevisiae deletion strains, growth OD, locus YGR229C, strain SMI1, stronger effect = lower value
Hit rate of the full screen: of about 5,500 compounds, about 2,000 (36%) were called active. Not shown: some 18% with an inconclusive outcome. The list shows a part of the results.
PARAMETER: normalized growth
// print number alone

Query :: Recorded normalized growth of N#Cc1c(Cl)cccc1Cl , please.
Result :: 1.02

Query :: Lookup CCOC(=O)CC(SP(=S)(OC)OC)C(=O)OCC (configuration not stated)
Result :: 1.02

Query :: Please do the same for CCC(=O)O[C@]1(C(=O)CCl)[C@@H](C)CC2C3CCC4=CC(=O)C=C[C@]4(C)[C@@]3(F)[C@@H](O)C[C@@]21C (some centres not stated) as well.
Result :: 0.971

Query :: Record: CCN(CCS(=O)(=O)c1ccc(C)cc1)S(=O)(=O)c1ccccc1
Result :: 0.999

Query :: Could you do the same for CC1(C)O[C@@H]2CC3C4C[C@H](F)C5=CC(=O)CC[C@]5(C)C4[C@@H](O)C[C@]3(C)[C@]2(C(=O)CO)O1 (some centres not stated) , please?
Result :: 1.02

Query :: Likewise for C#CCOC(=O)C1=CCCN(C)C1 ?
Result :: 1.01

Query :: Also COC(=O)NC(=S)Nc1ccccc1NC(=S)NC(=O)OC , if possible.
Result :: 0.986

Query :: Same thing, different molecule: CC(=O)NC(CS)C(=O)O (configuration not stated)
Result :: 1.02

Query :: Check CC(C)(C)NCC(O)COc1cccc2c1C[C@H](O)[C@H](O)C2 (some centres not stated) too.
Result :: 0.989

Query :: What do you have for COC(=O)C(N)CS (configuration not stated) ?
Result :: 0.949

Query :: And then COC(CNc1cccc(Cl)c1C#N)OC , what is it?
Result :: 0.978

Query :: Query Cc1c(OCC(F)(F)F)ccnc1CS(=O)c1nc2ccccc2[nH]1 (configuration not stated) next
Result :: 0.951

Query :: What do you have for O=C(CCCN1CCC(O)(c2ccc(Cl)cc2)CC1)c1ccc(F)cc1 ?
Result :: 0.324

Query :: What do you get for CCCCCC(O)C1C(=O)OC(C)C(O)/C=C/C=C/C=C/C=C/C=C(\C)C(O)CC(O)CC(O)CC(O)CC(O)CC(O)CC1O (configuration not stated) ?
Result :: 1.02

Query :: One more molecule: CC(=O)Oc1ccccc1C(=O)Oc1ccccc1C(=O)O
Result :: 1.01

Query :: Lookup C[C@@H](CO)NC(=O)C1C=C2c3cccc4[nH]cc(c34)C[C@H]2N(C)C1 (some centres not stated)
Result :: 1.06

Query :: Entry to check: COc1ccccc1N1CCN(C(=O)c2cccs2)CC1
Result :: 0.993
